System: OVCAR-5 ovarian
assayRemarks: NCI tumour cell line growth inhibition, 48 h
For each record, write down the corresponding TGI.

{"molecule": "Cc1ccccc1N=Nc1c(O)ccc2ccccc12", "recordedResult": "> 100 µM"}
{"molecule": "O=S1(=O)N2CN3CN(C2)CN1C3", "recordedResult": "362 µM"}
{"molecule": "CC(C)(O)/C1=C/C=C/CCCCCCCCCC1", "recordedResult": "> 100 µM"}
{"molecule": "CSc1ncnc2c1cnn2Cc1cn(COCCO)nn1", "recordedResult": "> 100 µM"}

Your task in this section: give TGI for each listed record.
1. O=[N+]([O-])C(=C/c1ccccc1)/C(=C\c1ccccc1)[N+](=O)[O-]
2. COc1cccc(/C=C/C(=O)c2ccc3cc(OC)ccc3c2)c1
3. CC(C)/C=C1\CCC(CN(C)C)C1=O (stereo not drawn)

OUT:
["46.6 µM", "25.5 µM", "15.3 µM"]

Your task in this section: give TGI for each listed record.
1. O=NN1C(c2ccccc2)CNC(=O)CC1c1ccccc1 (stereo not drawn)
2. O=C1Oc2ccccc2C1C/C(=N\Nc1ccccc1)c1ccccc1O (stereo not drawn)

OUT:
1. > 100 µM
2. > 100 µM

Your task in this section: give TGI for each listed record.
1. CC(=O)C1CCN(c2ccccc2)C1 (stereo not drawn)
2. O=C1NC(=NCc2ccccc2Cl)S/C1=C\c1ccc2ncccc2c1

OUT:
["> 100 µM", "> 25 µM"]

Your task in this section: give TGI for each listed record.
1. CCc1n[nH]c(=O)n1CCCCCCCCn1c(CC)n[nH]c1=O
2. COC(=O)C1CC2C=CC=CC(=O)C2(C)C1 (stereo not drawn)

OUT:
1. > 100 µM
2. > 100 µM

Your task in this section: give TGI for each listed record.
1. Cc1ccc(/C=C2\Sc3scc(-c4ccccc4)[n+]3C2=O)cc1
2. CN1CCN(CC(=O)N(C)c2ccc(N=C(c3ccccc3)c3c(O)[nH]c4ccc(C#N)cc34)cc2)CC1
3. Cc1ccc(C(=O)CC2(O)C(=O)Nc3c(C)cc(Cl)cc32)cc1 (stereo not drawn)
4. CCOC1OC(CO)C(O)CC1n1ccc(=O)[nH]c1=O (stereo not drawn)

OUT:
["> 100 µM", "19.2 µM", "> 100 µM", "> 100 µM"]

Your task in this section: give TGI for each listed record.
1. C/C(=N\O)c1ccc2ccc3ccccc3c2c1
2. CCOC(=O)c1c2ccc(/C=C/c3ccccn3)ccc-2c(C(=O)OCC)c1N

OUT:
1: > 100 µM; 2: > 100 µM

Your task in this section: give TGI for each listed record.
1. CC(C)OC(=O)c1ccc(NCc2cc(O)ccc2O)cc1
2. NS(=O)(=O)c1ccc(Nc2cc(-c3ccc(O)c(F)c3)[nH]n2)cc1
3. CCCCN(CCCC)C(=O)[C@H](CC)[C@@H]1CC[C@@H](C)[C@@H]([C@H](C)[C@@H](O)[C@@H](C)C(=O)[C@H](CC)C2O[C@]3(C=C[C@@H](O)[C@]4(CC[C@@](C)([C@H]5CC[C@](O)(CC)[C@H](C)O5)O4)O3)[C@H](C)C[C@@H]2C)O1 (stereo partly drawn)

OUT:
1: 15.9 µM; 2: > 25 µM; 3: 4.78 µM

IN: Look up TGI for this molecule: "O=C1CN(c2ccccc2)Cc2nc(Cl)ccc2N1"
OUT: > 100 µM

All figures here come from PubChem BioAssay (NCI).
